# target or test system: aFGF (Homo sapiens, UniProt P05230)
# Sequence (P05230 whole entry, species assumed): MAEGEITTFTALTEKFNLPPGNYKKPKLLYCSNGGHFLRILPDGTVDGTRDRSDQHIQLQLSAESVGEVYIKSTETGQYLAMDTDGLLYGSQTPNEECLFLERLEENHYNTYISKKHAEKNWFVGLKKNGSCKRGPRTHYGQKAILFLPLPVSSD
# assay summary: Biacore biosensor: inhibition of aFGF binding to immobilised heparin and heparan sulfate
# cond: immobilised heparan sulfate; inhibitor 0.034 μM, aFGF 0.025 μM
test readout: Inhibition of binding of aFGF (HS)

These recorded examples may help you get a feel for the data.
O=S(=O)(O)OC[C@H]1O[C@@](COS(=O)(=O)O)(O[C@H]2O[C@H](COS(=O)(=O)O)[C@@H](OS(=O)(=O)O)[C@H](OS(=O)(=O)O)[C@H]2OS(=O)(=O)O)[C@@H](OS(=O)(=O)O)[C@@H]1OS(=O)(=O)O [Sucrose octasulfate, reference compound]    0% (HS)
O=S(=O)(O)OC1C(OS(=O)(=O)O)C(OS(=O)(=O)O)C(N(Cc2cccc(CN(C3C(OS(=O)(=O)O)C(OS(=O)(=O)O)C(OS(=O)(=O)O)C(OS(=O)(=O)O)C3OS(=O)(=O)O)C3C(OS(=O)(=O)O)C(OS(=O)(=O)O)C(OS(=O)(=O)O)C(OS(=O)(=O)O)C3OS(=O)(=O)O)c2)C2C(OS(=O)(=O)O)C(OS(=O)(=O)O)C(OS(=O)(=O)O)C(OS(=O)(=O)O)C2OS(=O)(=O)O)C(OS(=O)(=O)O)C1OS(=O)(=O)O (centres unmarked)    67% (HS)
O=S(=O)(O)OC1C=CC(N(CCCCCCN(C2C=CC(OS(=O)(=O)O)C(OS(=O)(=O)O)C2OS(=O)(=O)O)C2C=CC(OS(=O)(=O)O)C(OS(=O)(=O)O)C2OS(=O)(=O)O)C2C=CC(OS(=O)(=O)O)C(OS(=O)(=O)O)C2OS(=O)(=O)O)C(OS(=O)(=O)O)C1OS(=O)(=O)O (centres unmarked)    47% (HS)
O=S(=O)(O)OC1C=CC(N(Cc2cccc(CN(C3C=CC(OS(=O)(=O)O)C(OS(=O)(=O)O)C3OS(=O)(=O)O)C3C=CC(OS(=O)(=O)O)C(OS(=O)(=O)O)C3OS(=O)(=O)O)c2)C2C=CC(OS(=O)(=O)O)C(OS(=O)(=O)O)C2OS(=O)(=O)O)C(OS(=O)(=O)O)C1OS(=O)(=O)O (centres unmarked)    65% (HS)

--- query ---
The compound O=S(=O)(O)OC1C=CC(N(Cc2ccc(CN(C3C=CC(OS(=O)(=O)O)C(OS(=O)(=O)O)C3OS(=O)(=O)O)C3C=CC(OS(=O)(=O)O)C(OS(=O)(=O)O)C3OS(=O)(=O)O)cc2)C2C=CC(OS(=O)(=O)O)C(OS(=O)(=O)O)C2OS(=O)(=O)O)C(OS(=O)(=O)O)C1OS(=O)(=O)O (centres unmarked) showed Inhibition of binding of aFGF (HS) equal to 63% (HS)
